Biological target: T1, Cyk3, Q07533
T1 sequence (Q07533 1-83, looked up): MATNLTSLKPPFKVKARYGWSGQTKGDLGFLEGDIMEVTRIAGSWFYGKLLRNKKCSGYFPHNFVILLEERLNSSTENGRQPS
Test: SPOT array
Conditions: median of control spots 1451
REPORTED_METRIC: SPOT intensity

DLFKPLPEPPTELGR	0
TKFRISLGLPVGAIM	0
APKHAPPPVPNETDN	0
PLRRTVMSLPGNHDI	0
TKRKRPARLIFYDSK	7
SAPDIPPRSPNRNAH	0
IFLRISINFPLNYPN	5
NHSRSLFSLPGNQQS	0

a: ALKQKKIPPPFKPHL
b: KRRAPPPVPKKPSSR
c: RRRIAYPFYPFKKLG
d: TSFKGRPKPPKTLKH
Exam item: Parameters: sort_field (SPOT intensity), sort_dir (desc). Submit the labels in the order that the ranking request calls for.
Marked response: b, d, c, a

I: HGKRRAPLLLAKLDV
II: GTIARPLFLVVLFFI
III: KTRLRPAFIQQLWSS
IV: RRRRRPHRIERPLSN
Exam item: Hi! Can you put these in order of SPOT intensity, lowest number first? # the answer lists labels in the order requested
Marked response: I, II, III, IV
(I: 0, II: 1, III: 3, IV: 5)
